Biological target: hMAO-A (Homo sapiens, UniProt P21397)
Construct: purchased Sigma Aldrich; host or cells: BTI-TN-5B1-4 baculovirus-infected insect cells
Sequence (P21397 1-527): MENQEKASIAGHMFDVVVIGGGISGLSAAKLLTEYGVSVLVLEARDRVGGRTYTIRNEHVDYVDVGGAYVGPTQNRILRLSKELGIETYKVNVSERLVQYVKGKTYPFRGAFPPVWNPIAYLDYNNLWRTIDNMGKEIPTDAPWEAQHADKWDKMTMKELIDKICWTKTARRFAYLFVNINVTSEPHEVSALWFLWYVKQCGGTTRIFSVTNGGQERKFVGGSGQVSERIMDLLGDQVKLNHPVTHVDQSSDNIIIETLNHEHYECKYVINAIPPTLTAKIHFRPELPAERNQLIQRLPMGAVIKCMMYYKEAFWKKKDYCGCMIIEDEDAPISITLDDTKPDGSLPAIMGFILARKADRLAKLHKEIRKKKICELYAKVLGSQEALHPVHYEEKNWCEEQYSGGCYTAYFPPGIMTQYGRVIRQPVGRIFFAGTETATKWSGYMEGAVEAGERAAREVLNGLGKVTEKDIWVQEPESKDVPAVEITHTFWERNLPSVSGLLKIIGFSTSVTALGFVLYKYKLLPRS
Assay: Inhibition of hMAO-A, fluorimetric Amplex Red assay
Assay type: biochemical
Conditions: residual activity at 10 µM; Mini Library screen, Table S1; read-out: hMAO-A (RA [%])
endpointName: remaining activity at 10 µM (%)

| smi | resultValue |
| --- | --- |
| O=C(Nc1ccc(Oc2ccncc2)cc1)Nc1cc(C(F)(F)F)ccc1-n1cncn1 | 82 |
| CCCCc1nc2ccn(CC(=O)N3CCCCC3)c(=O)c2n1Cc1ccc(-c2ccccc2S(=O)(=O)NC(=O)OCc2ccccc2)cc1F | 79 |
| C1=C(c2ccccc2)CCN(CCCCc2c[nH]c3ccccc23)C1 | 75 |
| O=C(OC[C@H]1CCCN1c1ccnc2ncnn12)c1ccc(Oc2ccccc2)nc1 | 78 |
| CCCCc1nc2ccn(Cc3ccccc3)c(=O)c2n1Cc1ccc(-c2ccccc2-c2nnn[nH]2)cc1 | 83 |
| Oc1ccc2[nH]cc(CCCCN3CC=C(c4ccccc4)CC3)c2c1 | 31 |
| CCCCCCN(Cc1ccc(C#Cc2ccc(CCCC)cc2)cc1)c1ccc(O)c(C(=O)O)c1 | 57 |
| CCCCCCN(Cc1ccc(C#Cc2ccc(CCCC)cc2)cc1)C(=O)c1ccc(O)c(C(=O)O)c1 | 73 |
| CCCCCCN(Cc1ccc(C#Cc2ccc(CCCC)cc2)cc1)c1ccc(F)c(C(=O)O)c1 | 60 |

###

Target: murine acetylcholinesterase (mAChE) (Mus musculus)
Sequence (P21836 32-614): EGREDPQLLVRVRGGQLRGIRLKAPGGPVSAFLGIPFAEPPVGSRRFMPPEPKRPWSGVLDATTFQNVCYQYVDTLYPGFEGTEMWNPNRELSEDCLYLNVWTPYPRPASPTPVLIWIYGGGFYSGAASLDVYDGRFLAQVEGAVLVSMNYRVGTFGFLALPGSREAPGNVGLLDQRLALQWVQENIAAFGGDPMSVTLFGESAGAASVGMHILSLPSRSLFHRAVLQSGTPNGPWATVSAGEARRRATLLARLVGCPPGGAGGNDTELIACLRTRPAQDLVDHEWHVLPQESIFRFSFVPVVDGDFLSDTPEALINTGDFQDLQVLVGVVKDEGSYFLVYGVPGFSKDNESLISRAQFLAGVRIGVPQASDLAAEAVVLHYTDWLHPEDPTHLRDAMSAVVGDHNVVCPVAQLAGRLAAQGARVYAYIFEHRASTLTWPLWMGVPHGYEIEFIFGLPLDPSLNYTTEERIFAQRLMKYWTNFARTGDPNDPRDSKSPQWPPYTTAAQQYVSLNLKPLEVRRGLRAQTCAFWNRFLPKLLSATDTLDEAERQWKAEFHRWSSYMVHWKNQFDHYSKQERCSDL
Assay: biochemical
Format: biochemical
Settings: residual activity at 10 µM; Mini Library screen, Table S1
The label depends only on mAChE RA (%): true if it is at least 90%, false if it is smaller.

| molecule | discreteLabel |
| --- | --- |
| O=C(Nc1ccc(Oc2ccncc2)cc1)Nc1cc(C(F)(F)F)ccc1-n1cncn1 [MS-ML80] | true |
| CCCCc1nc2ccn(CC(=O)N3CCCCC3)c(=O)c2n1Cc1ccc(-c2ccccc2S(=O)(=O)NC(=O)OCc2ccccc2)cc1F [MS-ML05] | true |
| Oc1ccc2[nH]cc(CCCCN3CC=C(c4ccccc4)CC3)c2c1 [MS-ML11] | false |
| C1=C(c2ccccc2)CCN(CCCCc2c[nH]c3ccccc23)C1 [MS-ML10] | false |

###

target: hMAO-A (Homo sapiens); construct: purchased Sigma Aldrich; host or cells: BTI-TN-5B1-4 baculovirus-infected insect cells; experiment: Inhibition of hMAO-A, fluorimetric Amplex Red assay; format: biochemical; conditions: residual activity at 10 µM; Table 3; read-out: hMAO-A RA (%)
In this section, each of the compounds is paired with its reported remaining activity at 10 µM.

| compound | unitText | remaining activity at 10 µM |
| --- | --- | --- |
| COc1ccc2c3c([nH]c2c1)C(C)=NCC3 [Harmaline, reference compound] | % | 0 |
| O=C(Nc1ccc(OCCN2CCCCC2)cc1)Nc1cc(C(F)(F)F)ccc1-n1cncn1 | % | 94 |
| CNC(=O)c1cc(Oc2ccc(NC(=O)Nc3cc(C(F)(F)F)ccc3F)cc2)ccn1 | % | 100 |
| O=C(Nc1ccc(Oc2ccncc2)cc1)Nc1cc(C(F)(F)F)ccc1-n1cncn1 | % | 78 |
| O=C(OC[C@H]1CCCN1c1ccnc2ncnn12)c1ccc(Oc2ccccc2)nc1 | % | 98 |
| CN(C)CCOc1ccc(NC(=O)Nc2cc(C(F)(F)F)ccc2-n2cncn2)cc1 | % | 117 |
| Nc1ncnc2c1ncn2-c1ccc(NC(=O)Nc2cc(C(F)(F)F)ccc2-n2cncn2)cc1 | % | 111 |

###

Quick list: remaining activity at 10 µM per entry.
Target: murine acetylcholinesterase (mAChE) (Mus musculus, UniProt P21836)
Assay: biochemical
Format: biochemical
Details: residual activity at 10 µM; Table 4; read-out: mAChE RA (%)
Description: Enzyme solutions were prepared by diluting the concentrated enzyme stock solutions (4.6 mg/mL in 10 mM MES-NaOH buffer, pH 6.5) in a sodium phosphate-buffered solution (0.1 M, pH 8.0). […] The final organic solvent (DMSO) content was always 1% (v/v). Reactions were initiated by adding the substrate to the enzyme and inhibitor, which were preincubated for 5 min. […] The initial velocity (v) was calculated from the slope of the linear trend obtained, with each measurement performed in triplicate. […]

| smi | remaining activity at 10 µM |
| --- | --- |
| Fc1ccc2[nH]cc(CCCCN3CC=C(c4ccccc4)CC3)c2c1 | 47% |
| COC(=O)CNC(=O)c1ccc2[nH]cc(CCCCN3CC=C(c4ccccc4)CC3)c2c1 | 100% |
| COc1ccc2[nH]cc(CCCCN3CCc4c([nH]c5ccc(OC)cc45)C3)c2c1 | 88% |
| Oc1ccc2c(CCCCN3CC=C(c4ccccc4)CC3)c[nH]c2c1 | 61% |
| O=C(O)c1cccc2[nH]cc(CCCCN3CC=C(c4ccccc4)CC3)c12 | 71% |
| CC(C)c1ccc2[nH]cc(CCCCN3CC=C(c4ccccc4)CC3)c2c1 | 44% |
| O=C(O)c1ccc2[nH]cc(CCCCN3CCc4c(c(=O)oc5ccccc45)C3)c2c1 | 78% |
| C1=C(c2cccc3ccccc23)CCN(CCCCc2c[nH]c3ccccc23)C1 | 76% |
| C1=C(c2ccccc2)CCN(CCCCc2c[nH]c3ccccc23)C1 | 64% |
| N#Cc1ccc2[nH]cc(CCCCN3CC=C(c4ccc5c(c4)OCC5)CC3)c2c1 | 59% |
| OCC1=C(c2ccc(F)cc2)CCN(CCCCc2c[nH]c3ccccc23)C1 | 31% |
| Oc1ccc2[nH]cc(CCCCN3CC=C(c4ccccc4)CC3)c2c1 | 82% |

###

Biological target: hMAO-A (Homo sapiens, UniProt P21397)
Construct: purchased Sigma Aldrich; host or cells: BTI-TN-5B1-4 baculovirus-infected insect cells
Test: Inhibition of hMAO-A, fluorimetric Amplex Red assay
Type: biochemical
Conditions: residual activity at 10 µM; Table S3
Description: The effects of the compounds on hMAO-A and hMAO-B were investigated using a fluorimetric assay, following a method previously described in the literature. […] Briefly, 100 µL of 50 mM sodium phosphate buffer (pH 7.4, 0.05% (v/v) Triton X-114), containing the compounds and hMAO-A or hMAO-B, was incubated for 15 min at 37 °C in a flat-bottomed black 96-well microplate protected from ambient light. […] Initial velocities were calculated from the obtained trend, with each measurement performed in duplicate. […]
Property: hMAO-A RA [%]; scope: individual compounds

| compound | hMAO-A RA [%] / % |
| --- | --- |
| FC(F)(F)c1ccc2nccc(OCC3CCCN3c3ccnc4ncnn34)c2c1 (stereo not drawn) [Compound S1] | 70 |
| CC(=O)N1CCc2cccc(OCC3CCCN3c3ccnc4ncnn34)c2C1 (stereo not drawn) [Compound S5] | 94 |
| O=C(NCCc1ccc(Cl)cc1)c1cc(OCC2CCCN2c2ccnc3ncnn23)c2ccccc2n1 (stereo not drawn) [Compound S8] | 86 |
| N#Cc1cccc(C(=O)OCC2CCCN2c2ccnc3ncnn23)c1 (stereo not drawn) [Compound S3] | 96 |
| O=C(OC[C@H]1CCCN1c1ccnc2ncnn12)c1ccc(Oc2ccccc2)nc1 [MS-ML31] | 98 |
| O=C(OCC1CCCN1c1ccnc2ncnn12)c1cccc(CCl)c1 (stereo not drawn) [Compound S7] | 70 |

Hello, the source for this data is paper PMC9320114, in case you need it.
